# assay_details: self-splicing fitness, log relative to wild type (ln ratio); higher = more splicing; Tetrahymena group I intron in knt gene, E. coli kanamycin selection, DiMSum; sequences stand for … in CUCUCU…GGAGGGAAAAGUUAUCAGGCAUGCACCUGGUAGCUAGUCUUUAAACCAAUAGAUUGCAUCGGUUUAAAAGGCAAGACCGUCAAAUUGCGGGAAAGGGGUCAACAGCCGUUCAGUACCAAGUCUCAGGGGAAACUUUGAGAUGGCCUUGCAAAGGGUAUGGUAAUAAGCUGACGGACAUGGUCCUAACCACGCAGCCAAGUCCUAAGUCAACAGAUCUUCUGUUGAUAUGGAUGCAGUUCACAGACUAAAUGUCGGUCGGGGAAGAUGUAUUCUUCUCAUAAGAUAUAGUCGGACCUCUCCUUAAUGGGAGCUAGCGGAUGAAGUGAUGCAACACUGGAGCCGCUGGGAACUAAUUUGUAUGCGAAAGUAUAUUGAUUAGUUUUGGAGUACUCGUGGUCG;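 also: selection with 25 µg/mL kanamycin versus none on LB agar overnight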
# experimental_context: 37 °C
Mark F for self-splicing fitness (ln) values under -2, and T for everything at or above.

{"chain_sequence": "UUCGAGCAAUAUUACGUUAG", "class_label": "F"}
{"chain_sequence": "CUAAAGCAAUAUUACGCCUC", "class_label": "T"}
{"chain_sequence": "ACACAGCAAUAUUACGAGCU", "class_label": "T"}
{"chain_sequence": "ACACAGCAAUAUUACGUAGC", "class_label": "F"}
{"chain_sequence": "CCCAAGCAAUAUUACGUACG", "class_label": "F"}
{"chain_sequence": "ACCGAGCAAUAUUACGCCGC", "class_label": "F"}

Q: Is it the case that UCACAGCAAUAUUACGAGAG has self-splicing fitness (ln) reaching or exceeding -2?
Ans: F

Q: Threshold query (self-splicing fitness (ln) >= -2) on ACGGAGCAAUAUUACGAUAG
Ans: F

====

Documented self-splicing fitness (ln) across a set of sequences
# assay_details: self-splicing fitness, log relative to wild type (ln ratio); higher = more splicing; Tetrahymena group I intron in knt gene, E. coli kanamycin selection, DiMSum; sequences stand for … in CUCUCU…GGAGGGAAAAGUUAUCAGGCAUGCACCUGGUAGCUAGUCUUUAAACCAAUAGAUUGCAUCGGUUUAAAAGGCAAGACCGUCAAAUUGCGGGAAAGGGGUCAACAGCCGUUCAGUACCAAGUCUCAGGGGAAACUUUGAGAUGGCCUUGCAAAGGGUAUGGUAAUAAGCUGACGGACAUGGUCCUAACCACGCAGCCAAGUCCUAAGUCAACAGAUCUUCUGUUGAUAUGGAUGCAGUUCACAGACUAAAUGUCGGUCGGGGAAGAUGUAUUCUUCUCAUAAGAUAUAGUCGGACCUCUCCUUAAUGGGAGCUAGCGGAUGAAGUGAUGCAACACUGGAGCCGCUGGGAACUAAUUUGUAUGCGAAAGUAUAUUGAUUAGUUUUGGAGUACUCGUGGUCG
# experimental_context: 30 °C
Please give only the number in your answer, with no unit.

Worked cases, self-splicing fitness (ln) given:
{"chain_sequence": "AAUUAGCAAUAUUACGGUUG", "measured_value": -2.53}
{"chain_sequence": "GAGUAGCAAUAUUACGCUUA", "measured_value": -1.45}

Q: Could you please provide reported self-splicing fitness (ln) for CUCUAGCAAUAUUACGAUUU ? Thanks!
Ans: -3.27

Q: Fill in self-splicing fitness (ln) for record CUGCAGCAAUAUUACGGGCU
Ans: -4.01

Q: Give me measured self-splicing fitness (ln), please, for this sequence: UUAAAGCAAUAUUACGUUUG
Ans: -2.18

Q: Fill in self-splicing fitness (ln) for record UCGUAGCAAUAUUACGACUU
Ans: -2.7

Q: Given AACAAGCAAUAUUACGACAA , respond with its self-splicing fitness (ln).
Ans: -1.28

Q: Please give measured self-splicing fitness (ln) of the following entry: GUGAAGCAAUAUUACGACAC
Ans: -1.1

Q: Determine from records and report self-splicing fitness (ln) for AUCUAGCAAUAUUACGCUGA
Ans: -1.71

Q: For AUGCAGCAAUAUUACGUUCA , write its self-splicing fitness (ln).
Ans: -1.16

Q: Return reported self-splicing fitness (ln). Input sequence: GAGUAGCAAUAUUACGGAGU
Ans: -3.7

Q: Please list self-splicing fitness (ln) recorded for the sequence AGACAGCAAUAUUACGGACA
Ans: -1.09

Q: Quick one: give measured self-splicing fitness (ln) for GGUCAGCAAUAUUACGCGUA
Ans: -0.325

====

# assay_details: self-splicing fitness, log relative to wild type (ln ratio); higher = more splicing; Tetrahymena group I intron in knt gene, E. coli kanamycin selection, DiMSum; sequences stand for … in CUCUCU…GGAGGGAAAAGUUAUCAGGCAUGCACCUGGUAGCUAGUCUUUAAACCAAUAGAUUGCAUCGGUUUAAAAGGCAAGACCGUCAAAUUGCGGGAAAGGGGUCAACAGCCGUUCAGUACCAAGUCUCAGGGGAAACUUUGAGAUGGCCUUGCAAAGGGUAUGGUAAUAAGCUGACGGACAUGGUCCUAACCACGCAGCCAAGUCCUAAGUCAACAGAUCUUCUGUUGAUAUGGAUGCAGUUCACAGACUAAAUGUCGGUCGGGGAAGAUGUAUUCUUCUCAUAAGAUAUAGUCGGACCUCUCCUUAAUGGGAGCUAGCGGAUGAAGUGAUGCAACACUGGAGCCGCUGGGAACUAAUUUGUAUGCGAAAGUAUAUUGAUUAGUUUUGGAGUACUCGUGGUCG
# experimental_context: 37 °C
This section presents sequences with their documented self-splicing fitness (ln) values.
Keep it simple and answer with nothing but the number.

Recorded results for 10 sequences are shown here.
{"chain_sequence": "CCCGAGCAAUAUUACGUCUA", "self-splicing fitness (ln)": -2.42}
{"chain_sequence": "CAUCAGCAAUAUUACGUGUC", "self-splicing fitness (ln)": -1.08}
{"chain_sequence": "UCGUAGCAAUAUUACGCAAC", "self-splicing fitness (ln)": -2.42}
{"chain_sequence": "AGAAAGCAAUAUUACGUCCA", "self-splicing fitness (ln)": -0.056}
{"chain_sequence": "GUCGAGCAAUAUUACGGGAC", "self-splicing fitness (ln)": -2.05}
{"chain_sequence": "GUGUAGCAAUAUUACGCCGC", "self-splicing fitness (ln)": -2.79}
{"chain_sequence": "CACAAGCAAUAUUACGGAGC", "self-splicing fitness (ln)": -3.25}
{"chain_sequence": "UACAAGCAAUAUUACGUGCA", "self-splicing fitness (ln)": -0.366}
{"chain_sequence": "CCACAGCAAUAUUACGUGUU", "self-splicing fitness (ln)": -3.15}
{"chain_sequence": "UCGUAGCAAUAUUACGAUUU", "self-splicing fitness (ln)": -2.4}

Q: Give reported self-splicing fitness (ln) value for UUACAGCAAUAUUACGCAGA
Ans: -0.823

Q: Consider the sequence GGCUAGCAAUAUUACGGGUG and give its recorded self-splicing fitness (ln).
Ans: -0.739

Q: Give self-splicing fitness (ln) for the following sequence: UACAAGCAAUAUUACGCGGU
Ans: -2.61

Q: # return recorded self-splicing fitness (ln) for input CUCAAGCAAUAUUACGCAGC
Ans: -1.9

Q: Tell me self-splicing fitness (ln) reported for UUGAAGCAAUAUUACGGAAU
Ans: -1.15

Q: Provide only the value of recorded self-splicing fitness (ln) for GAAAAGCAAUAUUACGCGUC
Ans: -2.78

Q: Please give the documented self-splicing fitness (ln) of UACCAGCAAUAUUACGUCGG
Ans: -1.91

Q: Return self-splicing fitness (ln) for the following sequence: UGUAAGCAAUAUUACGAGGA
Ans: -2.61

Q: For the sequence CACGAGCAAUAUUACGAUUC , give its measured self-splicing fitness (ln) value.
Ans: -2.49

Q: Specify reported self-splicing fitness (ln) for the sequence shown: GCUAAGCAAUAUUACGACGG
Ans: -1.49

Q: // fetch self-splicing fitness (ln) given entry UGCUAGCAAUAUUACGUCGU
Ans: -3.03

Q: Provide measured self-splicing fitness (ln) value, entry: UCGCAGCAAUAUUACGCUAU
Ans: -3

Q: Identify measured self-splicing fitness (ln) corresponding to GUGCAGCAAUAUUACGAAAC
Ans: -1.26

Q: Read off the recorded self-splicing fitness (ln) for GAUGAGCAAUAUUACGGAGA
Ans: -3

====

# assay_details: self-splicing fitness, log relative to wild type (ln ratio); higher = more splicing; Tetrahymena group I intron in knt gene, E. coli kanamycin selection, DiMSum; sequences stand for … in CUCUCU…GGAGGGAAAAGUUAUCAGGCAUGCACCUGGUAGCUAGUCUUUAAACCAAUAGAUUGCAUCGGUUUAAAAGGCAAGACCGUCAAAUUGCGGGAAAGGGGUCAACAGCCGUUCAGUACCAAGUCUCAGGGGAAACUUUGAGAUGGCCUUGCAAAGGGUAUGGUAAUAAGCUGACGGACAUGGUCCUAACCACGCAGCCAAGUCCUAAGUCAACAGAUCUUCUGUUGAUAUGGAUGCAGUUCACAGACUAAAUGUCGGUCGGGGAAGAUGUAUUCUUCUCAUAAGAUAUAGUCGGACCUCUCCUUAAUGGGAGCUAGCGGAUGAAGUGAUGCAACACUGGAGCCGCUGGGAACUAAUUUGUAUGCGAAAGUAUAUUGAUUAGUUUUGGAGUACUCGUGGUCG
# experimental_context: 30 °C
quantity_kind: self-splicing fitness (ln)
Just the number, please.

# example entries with known answers
{"chain_sequence": "AAGUAGCAAUAUUACGGGGG", "self-splicing fitness (ln)": -2.88}
{"chain_sequence": "AGGUAGCAAUAUUACGCGUA", "self-splicing fitness (ln)": -1.22}
{"chain_sequence": "UGUUAGCAAUAUUACGUGAA", "self-splicing fitness (ln)": -2.38}
{"chain_sequence": "UAUGAGCAAUAUUACGGCAG", "self-splicing fitness (ln)": -1.5}
{"chain_sequence": "UUUUAGCAAUAUUACGCUCA", "self-splicing fitness (ln)": -0.731}

In the following, a different sequence is considered.
Q: Provide self-splicing fitness (ln) value for the following sequence: GAGUAGCAAUAUUACGCUCG
Ans: -1.88
